Exercise: state measured binding signal for each of the sequences provided.
- test.system: SALL4 ZFC4 WT (HT-SELEX) (Mus musculus, UniProt Q8BX22 870-940)
- Sequence: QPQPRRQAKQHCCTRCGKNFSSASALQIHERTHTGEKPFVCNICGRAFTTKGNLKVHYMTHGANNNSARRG
- test.description: HT-SELEX; high values mean tight binding
- details: protein: recombinant; vector His6-GST; dsDNA, one strand shown
Give bare numbers, in fold-change vs cycle 0.

Some solved cases for reference:
GGTAAA | 1.19
GTACTA | 1.24
ATAAAT | 4.06
ATCAGG | 0.876

Now take the following sequence into account.
Task item: Report binding signal, nothing else, for this sequence: ACACGT
Reply: 0.75

###

- test.system: SALL4 ZFC4 WT (HT-SELEX) (Mus musculus, UniProt Q8BX22 870-940)
- Sequence: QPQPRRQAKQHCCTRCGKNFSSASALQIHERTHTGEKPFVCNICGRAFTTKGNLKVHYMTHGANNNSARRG
- test.description: HT-SELEX; high values mean tight binding
- details: protein: recombinant; vector His6-GST; dsDNA, one strand shown
Assignment: determine reported binding signal for the given sequences.
One number for each entry, in fold-change vs cycle 0.

AACTAT | 2.16
AAATCG | 0.874
AGATGC | 0.625
ATCTAA | 2.02

Give binding signal for all sequences that follow.
1. GATTGC
2. AGAACT
3. AACGAG
4. AAGTAG
5. ACGCAA
6. CTGCTA

Reply:
0.641
1.36
0.782
1.32
0.452
0.699

Task item: Could you please provide reported binding signal for CTCTGA ? Thanks!
Reply: 0.812

###

Please go through the items and note down their binding signal.
- test.system: SALL4 ZFC4 WT (HT-SELEX) (Mus musculus, UniProt Q8BX22 870-940)
- Sequence: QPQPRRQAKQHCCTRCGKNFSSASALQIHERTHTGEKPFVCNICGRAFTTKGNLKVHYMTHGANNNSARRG
- test.description: HT-SELEX; high values mean tight binding
- details: protein: recombinant; vector His6-GST; dsDNA, one strand shown
One number for each entry, in fold-change vs cycle 0.

Field: example entries. Status: answers known.
ACACAG | 0.726
GTGCTA | 0.592
GTGCAA | 0.539
CACTGG | 0.426
AGCAAT | 1.19

Value sought for every listed sequence: binding signal.
1. CACTCC
2. ACTACC
3. AAGTAA

Reply:
0.513
0.799
2.17

Go through the items and report each one's binding signal.
1. AGAAGA
2. AATTGT

Reply:
1.43
1.82

// batch mode: one binding signal value per listed entry
1. CCCAAA
2. GAAACC
3. ATATCC
4. ATAGAT
5. AATCAC

Reply:
[0.588, 0.748, 1.52, 2.3, 1.31]

###

- test.system: SALL4 ZFC4 WT (HT-SELEX) (Mus musculus, UniProt Q8BX22 870-940)
- Sequence: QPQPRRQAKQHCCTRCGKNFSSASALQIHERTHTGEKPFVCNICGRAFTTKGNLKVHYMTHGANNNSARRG
- test.description: HT-SELEX; high values mean tight binding
- details: protein: recombinant; vector His6-GST; dsDNA, one strand shown
binding signal under 1 fold-change vs cycle 0 gets label 1, anything at or over 1 fold-change vs cycle 0 gets label 0.

The examples below pair each entry with its known result.
ACACTC | label 1
ACGTTA | label 0
GTTAGA | label 0

Task item: Quick check: does ATTTAC have binding signal under 1 fold-change vs cycle 0?
Reply: label 0

Task item: Please determine if GGAGCA is below 1 fold-change vs cycle 0 in terms of binding signal.
Reply: label 1

Task item: Below 1 fold-change vs cycle 0 on binding signal? Entry AGTTAG
Reply: label 0

Task item: Hello, is binding signal of the following sequence strictly smaller than 1 fold-change vs cycle 0? GTATTA
Reply: label 0

Task item: Please indicate whether the reported binding signal of AGCTAT is strictly below 1 fold-change vs cycle 0.
Reply: label 0

Task item: Determine whether this sequence shows binding signal lower than 1 fold-change vs cycle 0 (ties excluded): AATGCG
Reply: label 1
